// provenance: PubChem BioAssay

assayed.target: Torsin-1A (Homo sapiens) (UniProt O14656)
Sequence (O14656 whole entry, looked up): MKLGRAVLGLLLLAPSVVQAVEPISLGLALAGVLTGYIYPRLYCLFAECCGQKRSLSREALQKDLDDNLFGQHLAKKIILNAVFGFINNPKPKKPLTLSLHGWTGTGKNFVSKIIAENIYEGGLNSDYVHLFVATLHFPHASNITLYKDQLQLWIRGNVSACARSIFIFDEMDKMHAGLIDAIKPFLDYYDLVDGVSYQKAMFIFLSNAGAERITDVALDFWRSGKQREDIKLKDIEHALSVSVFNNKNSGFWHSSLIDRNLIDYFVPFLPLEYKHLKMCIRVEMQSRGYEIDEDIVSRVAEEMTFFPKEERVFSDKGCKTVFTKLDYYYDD
protocol.details: torsin A binders from cell lysate, primary screen, small-molecule microarray, wild-type, 635/667 nm (AID 1149)
condition.set: COS7 hTOR1A-WT lysate, 635 nm fluorescence, higher = more signal
reported.endpoint: composite z-score
Give the value as a plain number.

# compound, measured.value
data = [
    ("O=C1C2C=CC(C(O)c3ccc(I)cc3)N(Nc3ccccc3)C2C(=O)N1c1ccccc1 (stereo not given)", -0.087),
    ("COCC(=C=CC[C@@H](O)c1ccc(OCCO)cc1)CCO", 0.995),
    ("COc1ccc(C(O)C2C=CC3C(=O)N(c4ccccc4)C(=O)C3N2Nc2ccccc2)cc1 (stereo not given)", -0.109),
    ("C=C(COC)/C(=C/C[C@@H](OC(=O)c1ccncc1)c1ccccc1OCCO)c1cc(C(=O)OC)ccc1OC", 0.758),
]

Next compound, please.
Request: Please give the documented composite z-score of Cc1ccccc1C(O)C1C=CC2C(=O)NC(=O)C2N1Nc1ccc(Cl)cc1Cl (stereo not given)
Response: -0.192

###

assayed.target: Streptavidin (Streptomyces avidinii)
protocol.details: streptavidin binders on small-molecule microarray, primary screen, artefact control for SMM compound annotation, biophysical, 635/667 nm fluorescence (AID 1147);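 also: signal reflects streptavidin binding to arrayed compounds as a control protein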
condition.set: streptavidin binding, higher = more signal
reported.endpoint: composite z-score
Give the value as a plain number.

Here's what some known entries look like.
# molecule, assayed.target, composite z-score
measured = [
    ("CCOC(=O)C[C@H]1[C@H](OC(=O)c2ccccc2-c2ccccc2)[C@@H](NC(=O)c2ccccc2)c2cc(OCCCO)ccc2N1C(=O)c1ccccc1", "Streptavidin (Streptomyces avidinii)", 0.19),
    ("C=CCC(OC(C)=O)[C@@H]1[C@@H](N(Cc2cccc3ccccc23)C(=O)Cc2ccc(F)cc2)c2cc(OCCCO)ccc2N1C(=O)c1ccc(-c2ccccc2)cc1 (stereo partly specified)", "Streptavidin (Streptomyces avidinii)", -0.153),
    ("C[C@]1(C(=O)NCCN2CCOCC2)c2ccccc2C(=O)N(Cc2cc(F)cc(C(F)(F)F)c2)[C@H]1c1ccc(CO)cc1", "Streptavidin (Streptomyces avidinii)", 0.0519),
    ("CC(=O)n1cc(C(O)C2C=CC3C(=O)N(c4ccccc4)C(=O)C3N2Nc2ccc(C(C)C)cc2)c2ccccc21 (stereo unspecified)", "Streptavidin (Streptomyces avidinii)", 1.88),
]

Request: Please give the documented composite z-score of C=CCC(OC(C)=O)[C@@H]1[C@@H](N(Cc2cc3ccccc3o2)C(=O)c2ccc(-c3ccccc3)cc2)c2cc(OCCCO)ccc2N1C(=O)Cc1ccc(OC)cc1 (stereo partly specified)
Response: -0.0182

Request: Please give the documented composite z-score of COCCOC(=O)N1C(=O)[C@@]2(c3cc(C#Cc4ccc(OC)cc4)ccc31)[C@H](C(=O)NC[C@H](O)c1ccccc1)[C@H]1C(=O)O[C@H](c3ccccc3)[C@H](c3ccccc3)N1[C@@H]2c1ccc(OCCO)cc1
Response: 0.277

###

protocol.details: small-molecule microarray binders of probe aXIP, primary screen, biochemical, NeuroSMM set, 635/667 nm fluorescence (AID 1119);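 also: probe is the protein aXip251-270 applied at 1 µg/mL to compound-printed slides; binding of probe to printed compounds measured as 667 nm fluorescence plus signal to noise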
condition.set: higher = more signal, called active from +8 up or from −8 down
reported.endpoint: composite Z-score
Give the value as a plain number.

# compound, composite Z-score
rows = [
    ("O=C(CS)NCCCCCNC(=O)[C@@H]1C[C@@H]2C(=O)N[C@@H](Cc3ccccc3)C(=O)N2[C@@H]1c1cccc(OCCO)c1", -0.32),
    ("O=C1[C@@H]2[C@@H](CC(COc3ccccc3)=C3[C@@H](CCc4ccccc4)OB(O)C[C@@H]32)C(=O)N1Cc1ccccc1", 0.196),
    ("O=C1NC(=O)C2C1C=CC(C(O)c1ccccn1)N2Nc1ccc(Cl)cc1Cl (centres undefined)", 0.222),
]

Request: Please give the documented composite Z-score of O=C1C[C@@](C(=O)NCc2ccccc2)(c2ccc([N+](=O)[O-])cc2)[C@@H](c2ccc(CO)cc2I)N1CC12CC3CC(CC(C3)C1)C2
Response: -0.0102

###

protocol.details: modulators of HCV replicon luciferase signal, primary screen, HCV replication inhibitor project, Huh7 cells, luciferase reporter (AID 1109);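 also: huh7 hepatoma cells harbouring a luciferase neomycin HCV replicon reporter; luciferase luminescence as measure of HCV replicon replication; test concentration not given here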
condition.set: 48 h, higher = more signal
Label fulfilled when z-score is at or above -1; anything below gets not fulfilled.

# molecule, qualitative.label
records = [
    ("COCCOC(=O)N1C(=O)[C@@]2(c3cc(C#CCNC(N)=O)ccc31)[C@H](c1ccc(O)cc1)N1[C@H](c3ccccc3)[C@H](c3ccccc3)OC(=O)[C@H]1[C@@H]2C(=O)N1CCN(c2ncccn2)CC1", "not fulfilled"),
]

Request: Threshold query (z-score >= -1) on C=C(CCCC)C(=O)CC[C@H](OC(C)=O)c1ccc(OCCO)cc1
Response: not fulfilled

Request: Threshold query (z-score >= -1) on CC(C)[C@H]1NC(=O)[C@@]23C(=O)N[C@@H](Cc4ccccc4)C2[C@H](C)[C@@]2(C)O[C@H]2C3/C=C/CCC/C=C/CNC(=O)[C@H](Cc2ccccc2)NC1=O (some centres not stated)
Response: fulfilled

###

Recorded composite z-score values for a group of compounds are listed next.
assayed.target: Epidermal growth factor receptor (Homo sapiens)
protocol.details: EGFR binders on small-molecule microarrays, primary screen, biochemical, small-molecule microarray, 635 nm fluorescence (AID 1104);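 also: score merges 667 nm emission intensity with spot signal to noise over triplicate slides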
condition.set: EGFR binding, higher = more signal
Give the value as a plain number.

Here's what some known entries look like.
# compound, assayed.target, measured.value
records = [
    ("C=CCC(OC(C)=O)[C@@H]1[C@@H](N(Cc2ccc(-c3cccc(C(F)(F)F)c3)o2)C(=O)c2cccc3ccccc23)c2cc(OCCCO)ccc2N1C(=O)Cc1ccc(OC)cc1 (stereo partly drawn)", "Epidermal growth factor receptor (Homo sapiens)", -0.198),
    ("CC(CO)N1C(=O)[C@@H]2[C@H]3C(=O)OCC=C[C@H]3OC23C=CCN(c2ccc(Cl)cc2)C(=O)[C@@H]13 (stereo partly drawn)", "Epidermal growth factor receptor (Homo sapiens)", -2.15),
]

Next compound, please.
Request: Please give the documented composite z-score of COc1ccc(C#Cc2ccc3c(c2)[C@]2(C(=O)N3)[C@H](C(=O)N3CCCCCCC3)[C@H]3C(=O)O[C@H](c4ccccc4)[C@H](c4ccccc4)N3[C@@H]2c2ccc(O)cc2)cc1
Response: 0.427

###

protocol.details: PSAC antagonists in infected red cells, primary screen, cell-based, P. falciparum Indochina, OD700, 2 h (AID 1155);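 also: lysis reports solute entry through the parasite surface anion channel PSAC; channel blockers reduce lysis of infected cells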
condition.set: P. falciparum Indochina infected erythrocytes, osmotic lysis OD700; higher = more signal, called active from +8 up or from −8 down
reported.endpoint: z-score
Give the value as a plain number.

Here's what some known entries look like.
# compound, z-score
data = [
    ("CCCC=C(CCC)[C@@H](NC(=O)CCc1ccccc1)c1ccc(C(F)(F)F)cc1", 0.542),
    ("C=CCC(OC(C)=O)[C@@H]1[C@@H](N(Cc2cccc3ccccc23)C(=O)Cc2ccc(F)cc2)c2cc(OCCCO)ccc2N1C(=O)c1ccc(-c2ccccc2)cc1 (some centres undefined)", 0.743),
    ("COc1cc2c(cc1OC)CN(C(=O)[C@@H]1[C@H]3C(=O)O[C@H](c4ccccc4)[C@H](c4ccccc4)N3[C@H](c3ccc(O)cc3)[C@@]13C(=O)Nc1ccc(C#CCCO)cc13)CC2", 0.448),
    ("CC(C)[C@H]1NC(=O)[C@@]23C(=O)N[C@@H](Cc4ccccc4)C2[C@H](C)[C@@]2(C)O[C@H]2C3/C=C/CCC/C=C/CNC(=O)[C@H](Cc2ccccc2)NC1=O (some centres undefined)", 0.581),
    ("Cc1ccc(S[C@]2(C(=O)NC(C)C)CC(=O)N(Cc3ccccc3Cl)[C@@H]2c2ccc(CO)cc2)cc1", 0.0285),
]

Request: Please give the documented z-score of O=C(NCC(O)CO)[C@@]1(CCS(=O)(=O)c2ccccc2)COC(c2ccc(OCCCO)cc2)=N1 (some centres undefined)
Response: 22.3

Request: Please give the documented z-score of CCN(CC)c1ccc(N2CC=CC34O[C@@H]5C=CCCOC(=O)C5[C@H]3C(=O)N(CCO)[C@@H]4C2=O)cc1 (some centres undefined)
Response: 0.537

Request: Please give the documented z-score of C=CCN1C(=O)[C@]2(O[C@H](CCO)[C@@H]([Si](C)(C)c3ccc(OC)cc3)[C@@H]2C)c2cc(N3C(=O)COc4ccccc43)ccc21
Response: 2.56

Request: Please give the documented z-score of O=C1O[C@H](c2ccccc2)[C@H](c2ccccc2)N2[C@H]1[C@@H](C(=O)O)[C@]1(C(=O)Nc3ccc(C#CC4(O)CCCCCC4)cc31)[C@H]2c1ccc(O)cc1
Response: -0.925

Request: Please give the documented z-score of O=C1C2C=CC(C(O)c3cc(C(F)(F)F)cc(C(F)(F)F)c3)N(Nc3ccccc3F)C2C(=O)N1c1ccccc1 (centres undefined)
Response: 1.93

Request: Please give the documented z-score of O=C1C2C=CC(C(O)c3ccc(I)cc3)N(Nc3ccccc3)C2C(=O)N1c1ccccc1 (centres undefined)
Response: 2.42

Request: Please give the documented z-score of O=C(O)[C@H]1C[C@H]2C(=O)N[C@@H](Cc3ccccc3)C(=O)N2[C@H]1c1cccc(OCCO)c1
Response: 0.547

Request: Please give the documented z-score of C=C(CCCC)C(=O)CC[C@H](OC(=O)c1ccccc1-c1ccccc1C(=O)O)c1ccccc1OCCO
Response: 1.56

Request: Please give the documented z-score of C=CCNC(=O)[C@H]1[C@@H]2C(=O)O[C@@H](c3ccccc3)[C@@H](c3ccccc3)N2[C@@H](c2ccc(OCCO)cc2)[C@]12C(=O)N(C(=O)OCCOC)c1ccc(C#Cc3ccc(OC)cc3)cc12
Response: 1.31
